# TARGET ENTITY: UniProt Q06187
pIC50: −log10 of the molar value.
REPORTED METRIC: pIC50

C=CC(=O)N1CC[C@@H](c2cc3cn[nH]c3c(-c3ccc(Oc4ccccc4)cc3)n2)C1 [Compound 22b] = > 7.00
C=CC(=O)N1CCCC(c2cc3cn[nH]c3c(-c3ccc(CN4CCOCC4)cc3)n2)C1 (centres unmarked) = 6.30 to 7.00
C=CC(=O)N1CCC(c2cc3cn[nH]c3c(-c3ccc(OC4CCCC4)cc3)n2)CC1 = > 7.00
C=CC(=O)N1CCC(c2cc3cn[nH]c3c(-c3ccc(C(=O)Nc4ccccn4)cc3)n2)C1 (centres unmarked) = > 7.00

Continue with the next molecule.
Prompt: Give pIC50 for C=CC(=O)Nc1cccc(-c2cc3cn[nH]c3c(-c3ccc(Oc4ccccc4)cc3)n2)c1
Completion: > 7.00

----------
Reported IC50, Bruton tyrosine kinase (BTK) (Homo sapiens (Human)).

C=CC(=O)N1CCC(c2cc3cn[nH]c3c(-c3ccc(Oc4ccccn4)cc3)n2)CC1 = < 100 nM
C=CC(=O)N1CC[C@H](c2cc3cn[nH]c3c(-c3ccc(Oc4ccccc4)cc3)n2)C1 [Compound 22a] = < 100 nM
C=CC(=O)N1CCN(c2cc3cn[nH]c3c(-c3ccc(Oc4ccccc4)cc3)n2)CC1 = < 100 nM

Continue with the next molecule.
Prompt: Give IC50 for C=CC(=O)N1CCC(c2cc3cn[nH]c3c(-c3ccc(Oc4ccccc4)cc3F)n2)CC1
Completion: < 100 nM

Where these numbers come from: patent US10336755B2
